Quick list: half-life per entry.
# Assay remarks: Stability of peptides in simulated gastric fluid (pH 1.5; HCl, NaCl and Pepsin)
# Assay type: in vitro ADME
# Protocol conditions: simulated gi fluid, pH 1.5
Where a SMILES comes first, the peptide text is derived from it. [ ]: non-standard residue; d: D form. ξ: configuration not given here. ξαMePhe(2,6-F2) = CC(N)(Cc1c(F)cccc1F)C(=O)O; ξαMePhe(2-F) = CC(N)(Cc1ccccc1F)C(=O)O; hArg = N=C(N)NCCCC[C@H](N)C(=O)O; Nle = CCCC[C@H](N)C(=O)O; ξαMeP = CC1(C(=O)O)CCCN1; Ac5c = NC1(C(=O)O)CCCC1; Aib = CC(C)(N)C(=O)O

# example entries with known answers
Molecule | half-life
CCCC[C@H](NC(=O)C(C)(Cc1ccccc1F)NC(=O)[C@H](CCC(N)=O)NC(=O)[C@@H](NC(=O)[C@H](CCC(=O)O)NC(=O)C(C)(C)NC(=O)[C@@H](NC(=O)C(C)(C)N)C(C)C)[C@@H](C)CC)C(=O)N[C@@H](Cc1c[nH]cn1)C(=O)N[C@@H](CCC(N)=O)C(=O)N[C@@H](CCCCNC(=N)N)C(=O)NC(C)(C)C(=O)NC(C)(C)C(=O)NC(C)(Cc1c(F)cccc1F)C(N)=O (stereo partly drawn) [Seq. ID. 182] (H-[Aib]V[Aib]EIQ[ξαMePhe(2-F)][Nle]HQ[hArg][Aib][Aib][ξαMePhe(2,6-F2)]-NH2) | > 24 h
CCCC[C@H](NC(=O)C(C)(Cc1ccccc1F)NC(=O)[C@H](CCC(N)=O)NC(=O)[C@@H](NC(=O)[C@H](CCC(=O)O)NC(=O)C1(NC(=O)[C@@H](NC(=O)C(C)(C)N)C(C)C)CCCC1)[C@@H](C)CC)C(=O)N[C@@H](Cc1c[nH]cn1)C(=O)N[C@@H](CCC(N)=O)C(=O)N[C@@H](CCCCNC(=N)N)C(=O)N1CCCC1(C)C(=O)N[C@@H](CCCCN)C(=O)NC(C)(Cc1ccccc1F)C(N)=O (stereo partly drawn) [Seq. ID. 62] (H-[Aib]V[Ac5c]EIQ[ξαMePhe(2-F)][Nle]HQ[hArg][ξαMeP]K[ξαMePhe(2-F)]-NH2) | > 24 h

Please look up its half-life: CCCC[C@H](NC(=O)C(C)(Cc1ccccc1F)NC(=O)[C@H](CCC(N)=O)NC(=O)[C@@H](NC(=O)[C@H](CCC(=O)O)NC(=O)C(C)(C)NC(=O)[C@@H](NC(=O)C(C)(C)N)C(C)C)[C@@H](C)CC)C(=O)N[C@@H](Cc1c[nH]cn1)C(=O)N[C@@H](CCC(N)=O)C(=O)N[C@@H](CCCCNC(=N)N)C(=O)N1CCCC1(C)C(=O)N[C@@H](CCCCN)C(=O)NC(C)(Cc1ccccc1F)C(N)=O (stereo partly drawn) [Seq. ID. 56] (H-[Aib]V[Aib]EIQ[ξαMePhe(2-F)][Nle]HQ[hArg][ξαMeP]K[ξαMePhe(2-F)]-NH2)
> 24 h
